Where these numbers come from: patent US20240279233A1

I'd be grateful if you could share measured IC50 for these entries.
Target: human recombinant TAK1-TAB1 Kinase (TAK1 (1-303) and TAB1 (437-end)) (Homo sapiens (Human), UniProt O43318)
Sequence (O43318 other isoform, or with tags, fused parts or gaps): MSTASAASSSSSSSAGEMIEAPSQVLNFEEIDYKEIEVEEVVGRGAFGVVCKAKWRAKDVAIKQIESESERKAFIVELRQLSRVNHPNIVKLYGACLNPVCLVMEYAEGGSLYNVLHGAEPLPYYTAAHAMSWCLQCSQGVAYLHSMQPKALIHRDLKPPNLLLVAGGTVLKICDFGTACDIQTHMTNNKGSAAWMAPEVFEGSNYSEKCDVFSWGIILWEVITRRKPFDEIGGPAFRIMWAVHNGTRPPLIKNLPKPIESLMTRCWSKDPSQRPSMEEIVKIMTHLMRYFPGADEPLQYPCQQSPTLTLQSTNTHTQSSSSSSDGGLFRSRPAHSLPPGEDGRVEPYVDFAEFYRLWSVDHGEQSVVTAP
Experiment: TAK1 biochemical ADP-Glo kinase assay
Conditions: 10 μM ATP, MBP substrate; read-out: TAK1 Mean IC50 (nM) @ 10 μM ATP
Experimental: The usefulness of the example compounds of the invention as TAK1 inhibitors was evaluated in a biochemical ADP-Glo kinase assay. Assay kits from Promega Corporation V4089 were used according to manufacturer's instructions and adapted as outlined here. […] One μl of compound solution in 5% DMSO was added to each well in a 384 well microtiter plate (OptiPlate #6007290). […] The plate was incubated for 30 minutes at room temperature in dark before reading luminescence on an Envision (PerkinElmer) reader. […]
Numbers only, in nM.

Below: 3 compounds and their reported IC50.
>>> measurement("COC1CN(C(=O)c2cccc3c2N2/C(=N/C(=O)c4cccc(c4)C(=O)NCCCCC2C)N3)C1 (single isomer, unassigned) [Example 81]")
6
>>> measurement("CC1CCCCNC(=O)c2cccc(c2)C(=O)/N=C2\\Nc3cccc(C(=O)N4CCOC[C@@H]4C)c3N21 (single isomer, unassigned) [Example 78]")
8
>>> measurement("O=C1NCCCCCn2c(nc3cccc(C(=O)O)c32)NC(=O)c2cccc1c2")
9

Query compound follows.
Req: Output IC50 of O=C1NCCCCCn2c(nc3cccc(C(=O)N4CCNCC4)c32)NC(=O)c2cccc1c2
Resp: 4

====

Target: human recombinant TAK1-TAB1 Kinase (TAK1 (1-303) and TAB1 (437-end)) (Homo sapiens (Human), UniProt O43318)
Test: TAK1 biochemical ADP-Glo kinase assay
Settings: 10 μM ATP, MBP substrate; read-out: TAK1 Mean IC50 (nM) @ 10 μM ATP
Friendly reminder: IC50 below 5 nM is label 1, at or above is label 0.

Use the examples below as a reference point.
>>> qualitative_label("C[C@H]1CCCCNC(=O)c2cccc(c2)C(=O)/N=C2\\Nc3cccc(C(=O)N4C[C@H]5C[C@@H]4CN5C)c3N21")
"label 0"
>>> qualitative_label("O=C1/N=C2\\Nc3ccc(C(=O)N4CCNCC4)cc3N2CCCCCNC(=O)c2cccc1c2")
"label 1"
>>> qualitative_label("Cc1ccc2c(c1)nc1n2CCCCCNC(=O)c2cccc(c2)C(=O)N1")
"label 0"

Kindly review the next compound as well.
Req: Answer whether the compound C[C@@H]1CCCCNC(=O)c2cccc(c2)C(=O)Nc2nc3cc(C(C)(C)O)cc(C(=O)N(C)C)c3n21 has IC50 strictly less than 5 nM
Resp: label 1

====

I'd be grateful if you could share measured IC50 for these entries.
Target: human recombinant TAK1-TAB1 Kinase (TAK1 (1-303) and TAB1 (437-end)) (Homo sapiens (Human), UniProt O43318)
Experiment: TAK1 biochemical ADP-Glo kinase assay
Conditions: 10 μM ATP, MBP substrate; read-out: TAK1 Mean IC50 (nM) @ 10 μM ATP
Give bare numbers, in nM.

Below: 5 molecules and their reported IC50.
>>> measurement("C[C@@H]1CN(C)CCN1C(=O)c1cccc2c1N1CCCCCNC(=O)c3cccc(c3)C(=O)/N=C/1N2")
19
>>> measurement("C[C@H]1CCCCNC(=O)c2cccc(c2)C(=O)/N=C2\\Nc3ccnc(N4CCN(C)C4=O)c3N21")
7
>>> measurement("CCC1CCCCNC(=O)c2cccc(c2)C(=O)Nc2nc3cccc(C(=O)N(C)C)c3n21 (single isomer, unassigned) [Example 68]")
4
>>> measurement("CC1CCCCNC(=O)c2cccc(c2)C(=O)/N=C2\\Nc3cccc(C(=O)N4CC[C@@H](F)C4)c3N21 (single isomer, unassigned) [Example 92]")
6
>>> measurement("CC1CCCNC(=O)c2cccc(c2)C(=O)Nc2nc3cccc(C(=O)N(C)C)c3n2C1 (stereo not drawn) [Example 51]")
136

Hi team, please reply with IC50 for each item in this list.
1. C[C@H]1CCCCNC(=O)c2cccc(c2)C(=O)/N=C2\Nc3cccc(-c4cn(C5COC5)nn4)c3N21
2. CC1CCCCNC(=O)c2cccc(c2)C(=O)Nc2nc3cccc(C(=O)N(C)C)c3n21 (single isomer, unassigned) [Example 32]

Resp:
6
3
